# System: 616215-338-R-J1-PDC tumor spheroids, viability;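 further: spheroids exposed to agents for 7 days before readout; percent viability relative to DMSO vehicle control wells taken as 100%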
# RUN_DESCRIPTION: Anticancer human tumor 616215-338-R-J1-PDC patient-derived colon adenocarcinoma cell line growth inhibition [GQUAD]
# ASSAY_CONDITIONS: second compound 10 µM; first compound 0.316 µM; hits give low values; spheroids with HUVEC and MSC
# Description: DNA G-quadruplex Stabilizer Agents in Combinations in Complex Spheroids A high-throughput screen of multi-cell type tumor spheroids was designed to identify active combinations of DNA G-quadruplex stabilizer agents and targeted small molecules. […] Compounds. […] If the clinical Cmax for an agent had not been determined, the highest concentration tested was 10 microM. […]
Reported viability, T/C is given for each of the following compounds.

Cc1cccc(N(C)C(=O)C2C(O)CCN2c2nc(C)cc(C(F)(F)F)c2C#N)c1 (stereo not given) + Cc1cnc(CNC(=O)c2c(=O)c3ccc(N4CCCN(C)CC4)nc3n3c2sc2ccccc23)cn1 ... 31.1%
CC(=O)O[C@H]1C(=O)[C@@]2(C)[C@H]([C@H](OC(=O)c3ccccc3)[C@]3(O)C[C@H](OC(=O)[C@H](O)[C@@H](NC(=O)c4ccccc4)c4ccccc4)C(C)=C1C3(C)C)[C@]1(OC(C)=O)CO[C@@H]1C[C@@H]2O + Cc1[nH]c2ccc(F)cc2c1-c1nc2c3cccnc3c3ncccc3c2[nH]1 ... 14.9%
Cn1ncnc1[C@H]1c2n[nH]c(=O)c3cc(F)cc(c23)N[C@@H]1c1ccc(F)cc1 + Cc1cnc(CNC(=O)c2c(=O)c3ccc(N4CCCN(C)CC4)nc3n3c2sc2ccccc23)cn1 ... 30.2%
COc1ccc([C@@H](O)c2cc(-c3ncnc4cc(N5CCOCC5)ccc34)c(F)cc2Cl)nn1 + Cc1cnc(CNC(=O)c2c(=O)c3ccc(N4CCCN(C)CC4)nc3n3c2sc2ccccc23)cn1 ... 32.3%
C=CCn1c(=O)c2cnc(Nc3ccc(N4CCN(C)CC4)cc3)nc2n1-c1cccc(C(C)(C)O)n1 + CN(C)c1ccc(Nc2c3ccc(NC(=O)CCN4CCCC4)cc3nc3cc(NC(=O)CCN4CCCC4)ccc23)cc1 ... 49%
CCCS(=O)(=O)Nc1ccc(F)c(C(=O)c2c[nH]c3ncc(-c4ccc(Cl)cc4)cc23)c1F + Cc1[nH]c2ccc(F)cc2c1-c1nc2c3cccnc3c3ncccc3c2[nH]1 ... 101%
Cc1cccc(N(C)C(=O)C2C(O)CCN2c2nc(C)cc(C(F)(F)F)c2C#N)c1 (stereo not given) + Cc1[nH]c2ccc(F)cc2c1-c1nc2c3cccnc3c3ncccc3c2[nH]1 ... 96.2%
CC1COCCN1c1cc(C2(O)CC3CCC(C2)O3)c2cnn(-c3ccn[nH]3)c2n1 (stereo not given) + Cc1[nH]c2ccc(F)cc2c1-c1nc2c3cccnc3c3ncccc3c2[nH]1 ... 36.1%
COc1cccc2c1C(=O)c1c(O)c3c(c(O)c1C2=O)CC(O)(C(=O)CO)CC3OC1CC(N)C(O)C(C)O1 (stereo not given) + Cc1cnc(CNC(=O)c2c(=O)c3ccc(N4CCCN(C)CC4)nc3n3c2sc2ccccc23)cn1 ... 28.3%

// query Request the reported viability, T/C associated with O=C(NO)c1cnc(N2CCN(S(=O)(=O)c3ccc4ccccc4c3)CC2)nc1 + Cc1[nH]c2ccc(F)cc2c1-c1nc2c3cccnc3c3ncccc3c2[nH]1
// result 65.7%

The measurements presented in this section are drawn from PubChem BioAssay AID2060493.
